B1: ZBED1 (parent)
chain: EQVFSLGDGVSGGFFGIRDSSFL

Variants of: B1
experiment_notes: protein stability index of a GFP-peptide fusion (GPS, HEK-293T) (PSI 1-6); higher = more stable;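 note: lentivirally expressed fusions sorted by FACS into six bins by GFP to DsRed ratio, PSI derived from sequencing read proportions per bin multiplied by bin number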
test_conditions: c terminus: native
recorded_metric: protein stability index
Just the number, please, no unit after it.

{"mutant_designation": "V10H", "protein stability index": 3.55}

// switching to the query variant
Looking up `G13F` , I found its protein stability index recorded as 1.98

Just for reference, the supplement of paper PMC10567573 is where these values come from.
